test system: Quadruplex DNA; assay: Displacement of thiazole orange from human telomeric IKF1 G4 quadruplex DNA at 10 equiv. at pH 7.4 by fluorescent intercalator displacement assay; assay type: nucleic-acid assay
# Lookup of reported Activity keyed by entry
Please reply with the bare figure in % and do not write the unit itself.

O=c1c(-c2ccc(O)cc2)coc2cc(O[C@@H]3O[C@H](CO)[C@@H](O)[C@H](O)[C@H]3O)cc(O)c12 = 20.8
O=c1c(-c2ccc(O)cc2)coc2cc(O[C@@H]3O[C@H](CO)[C@@H](O)[C@H](O)[C@H]3O)ccc12 = 20.9
COC(=O)C1=CO[C@@H](O[C@@H]2O[C@H](CO)[C@@H](O)[C@H](O)[C@H]2O)[C@@H]2C(CO)=CC[C@H]12 = 23.1
OC[C@H]1O[C@@H](O[C@@H]2[C@@H](CO)O[C@](O)(CO)[C@H]2O)[C@H](O)[C@@H](O)[C@H]1O = 21.4
O=C(O)[C@H]1O[C@@H](Oc2cc3oc(-c4ccccc4)cc(=O)c3c(O)c2O)[C@H](O)[C@@H](O)[C@@H]1O = 24

// below: Activity requested for another compound
The compound O=C(O)C1=CO[C@@H](O[C@@H]2O[C@H](CO)[C@@H](O)[C@H](O)[C@H]2O)[C@@H]2C(CO)=CC[C@H]12 on Quadruplex DNA: Activity was 23

These entries and their values trace back to ChEMBL document CHEMBL5104132.
